Origin of measurements: ChEMBL document CHEMBL1141149

# assay_info: Ratio of IC50 of LacZ cell line to CPG2-expressing cell line
# Assay type: functional, Homo sapiens

>  <compound_structure>
O=C(O)CC[C@H](NC(=O)c1cc(F)c(N(CCCl)CCCl)c(F)c1F)C(=O)O

>  <Differential>
>55

$$$$
>  <compound_structure>
O=C(O)CC[C@H](NC(=O)c1cc(F)c(N(CCBr)CCBr)c(F)c1F)C(=O)O

>  <Differential>
>49

$$$$
>  <compound_structure>
O=C(O)CC[C@H](NC(=O)c1cc(F)c(N(CCCl)CCCl)c(F)c1)C(=O)O

>  <Differential>
>95

$$$$
>  <compound_structure>
O=C(O)CC[C@H](NC(=O)c1cc(F)c(N(CCI)CCI)c(F)c1)C(=O)O

>  <Differential>
86

$$$$
>  <compound_structure>
O=C(O)CC[C@H](NC(=O)c1cc(F)c(N(CCI)CCI)c(F)c1F)C(=O)O

>  <Differential>
>6

$$$$
>  <compound_structure>
O=C(O)CC[C@H](NC(=O)c1cc(F)c(N(CCBr)CCBr)c(F)c1)C(=O)O

>  <Differential>
>75

$$$$

---

# assay_info: Chemical half life period as substrates of CPG2 was determined
# Assay type: ADME
test_readout: half-life (min)

>  <compound_structure>
O=C(O)CC[C@H](NC(=O)c1cc(F)c(N(CCCl)CCCl)c(F)c1)C(=O)O

>  <test_readout>
half-life

>  <number>
294

$$$$
>  <compound_structure>
O=C(O)CC[C@H](NC(=O)c1cc(F)c(N(CCI)CCI)c(F)c1)C(=O)O

>  <test_readout>
half-life

>  <number>
9

$$$$
>  <compound_structure>
O=C(O)CC[C@H](NC(=O)c1c(F)c(F)c(N(CCI)CCI)c(F)c1F)C(=O)O

>  <test_readout>
half-life

>  <number>
120

$$$$
>  <compound_structure>
O=C(O)CC[C@H](NC(=O)c1cc(F)c(N(CCBr)CCBr)c(F)c1F)C(=O)O

>  <test_readout>
half-life

>  <number>
22.9

$$$$
>  <compound_structure>
CS(=O)(=O)OCCN(CCCl)c1ccc(C(=O)O)cc1

>  <test_readout>
half-life

>  <number>
30

$$$$
>  <compound_structure>
O=C(O)CC[C@H](NC(=O)c1cc(F)c(N(CCBr)CCBr)c(F)c1)C(=O)O

>  <test_readout>
half-life

>  <number>
5.5

$$$$
>  <compound_structure>
O=C(O)CC[C@H](NC(=O)c1cc(F)c(N(CCI)CCI)c(F)c1F)C(=O)O

>  <test_readout>
half-life

>  <number>
37.3

$$$$
>  <compound_structure>
O=C(O)CC[C@H](NC(=O)c1cc(F)c(N(CCCl)CCCl)c(F)c1F)C(=O)O

>  <test_readout>
half-life

>  <number>
1300

$$$$
>  <compound_structure>
O=C(O)CC[C@H](NC(=O)c1c(F)c(F)c(N(CCCl)CCCl)c(F)c1F)C(=O)O

>  <test_readout>
half-life

>  <number>
4940

$$$$

---

# experimental_target: Carboxypeptidase G2 (Pseudomonas aeruginosa (strain ATCC 15692 / PAO1 / 1C / PRS 101 / LMG12228))
# assay_info: Kcat against carboxypeptidase G2 in inhibitory kinetic assay
test_readout: K cat

>  <compound_structure>
O=C(O)CC[C@H](NC(=O)c1cc(F)c(N(CCBr)CCBr)c(F)c1F)C(=O)O

>  <test_readout>
K cat

>  <result>
825 1/S

$$$$
>  <compound_structure>
CS(=O)(=O)OCCN(CCCl)c1ccc(C(=O)N[C@@H](CCC(=O)O)C(=O)O)cc1

>  <test_readout>
K cat

>  <result>
583 1/S

$$$$
>  <compound_structure>
O=C(O)CC[C@H](NC(=O)c1cc(F)c(N(CCI)CCI)c(F)c1F)C(=O)O

>  <test_readout>
K cat

>  <result>
220 1/S

$$$$
>  <compound_structure>
O=C(O)CC[C@H](NC(=O)c1cc(F)c(N(CCBr)CCBr)c(F)c1)C(=O)O

>  <test_readout>
K cat

>  <result>
827 1/S

$$$$
>  <compound_structure>
O=C(O)CC[C@H](NC(=O)c1c(F)c(F)c(N(CCCl)CCCl)c(F)c1F)C(=O)O

>  <test_readout>
K cat

>  <result>
0 1/S

$$$$
>  <compound_structure>
O=C(O)CC[C@H](NC(=O)c1cc(F)c(N(CCCl)CCCl)c(F)c1)C(=O)O

>  <test_readout>
K cat

>  <result>
732 1/S

$$$$
>  <compound_structure>
O=C(O)CC[C@H](NC(=O)c1c(F)c(F)c(N(CCI)CCI)c(F)c1F)C(=O)O

>  <test_readout>
K cat

>  <result>
0 1/S

$$$$
>  <compound_structure>
O=C(O)CC[C@H](NC(=O)c1cc(F)c(N(CCCl)CCCl)c(F)c1F)C(=O)O

>  <test_readout>
K cat

>  <result>
1150 1/S

$$$$
>  <compound_structure>
O=C(O)CC[C@H](NC(=O)c1cc(F)c(N(CCI)CCI)c(F)c1)C(=O)O

>  <test_readout>
K cat

>  <result>
1150 1/S

$$$$

---

Documented Differential across a set of compounds
# assay_info: Ratio of IC50 of LacZ cell line to stCPG2(Q)3-expressing cell line
# Assay type: functional, Homo sapiens

>  <compound_structure>
O=C(O)CC[C@H](NC(=O)c1cc(F)c(N(CCBr)CCBr)c(F)c1F)C(=O)O

>  <Differential>
>80

$$$$
>  <compound_structure>
O=C(O)CC[C@H](NC(=O)c1cc(F)c(N(CCI)CCI)c(F)c1F)C(=O)O

>  <Differential>
>23

$$$$
>  <compound_structure>
O=C(O)CC[C@H](NC(=O)c1cc(F)c(N(CCCl)CCCl)c(F)c1F)C(=O)O

>  <Differential>
>87

$$$$
>  <compound_structure>
O=C(O)CC[C@H](NC(=O)c1cc(F)c(N(CCI)CCI)c(F)c1)C(=O)O

>  <Differential>
127

$$$$
>  <compound_structure>
O=C(O)CC[C@H](NC(=O)c1cc(F)c(N(CCBr)CCBr)c(F)c1)C(=O)O

>  <Differential>
>280

$$$$
>  <compound_structure>
CS(=O)(=O)OCCN(CCCl)c1ccc(C(=O)N[C@@H](CCC(=O)O)C(=O)O)cc1

>  <Differential>
19

$$$$
>  <compound_structure>
O=C(O)CC[C@H](NC(=O)c1cc(F)c(N(CCCl)CCCl)c(F)c1)C(=O)O

>  <Differential>
>150

$$$$
